# Test system: LG0703-F498-PDC complex spheroid growth
# assayRemarks: Anticancer human tumor LG0703-F498-PDC patient-derived lung adenocarcinoma cell line growth inhibition [AhR]
# conditionLabel: second compound 0.1 µM; first compound 0.0316 µM; stronger effect = lower value
# key: entry, value: viability, T/C
propertyLabel: viability, T/C (%)

>>> reportedmeasurement("O=C(c1cc(Cc2n[nH]c(=O)c3ccccc23)ccc1F)N1CCN(C(=O)C2CC2)CC1 + Cc1cncc(-c2nc(NCCc3c[nH]c4ccccc34)c3ncn(C(C)C)c3n2)c1")
105
>>> reportedmeasurement("Nc1ccccc1NC(=O)c1ccc(CNC(=O)OCc2cccnc2)cc1 + CC(CO)NC(=O)c1cc(-c2ccc(Cl)cc2)nn(-c2cnn(C)c2)c1=O")
82.4
>>> reportedmeasurement("NS(=O)(=O)OCC1CC(n2ccc3c(NC4CCc5ccccc54)ncnc32)CC1O (configuration not stated) + Cc1ccccc1N=Nc1ccc(NC(=O)c2ccnn2C)c(C)c1")
100
>>> reportedmeasurement("COc1cc(C2c3cc4c(cc3C(OC3OC5COC(C)OC5C(O)C3O)C3COC(=O)C23)OCO4)cc(OC)c1O (configuration not stated) + CC(CO)NC(=O)c1cc(-c2ccc(Cl)cc2)nn(-c2cnn(C)c2)c1=O")
111
>>> reportedmeasurement("O=C(C=Cc1cccc(S(=O)(=O)Nc2ccccc2)c1)NO + CC(CO)NC(=O)c1cc(-c2ccc(Cl)cc2)nn(-c2cnn(C)c2)c1=O")
106
>>> reportedmeasurement("Nc1ccccc1NC(=O)c1ccc(CNC(=O)OCc2cccnc2)cc1 + Cc1cncc(-c2nc(NCCc3c[nH]c4ccccc34)c3ncn(C(C)C)c3n2)c1")
93
>>> reportedmeasurement("COc1cc(Nc2ncc3c(n2)-c2ccc(Cl)cc2C(c2c(F)cccc2OC)=NC3)ccc1C(=O)O + Cc1cncc(-c2nc(NCCc3c[nH]c4ccccc34)c3ncn(C(C)C)c3n2)c1")
88.6

###

# System: LG0703-F498-PDC complex spheroid growth
# assayRemarks: Anticancer human tumor LG0703-F498-PDC cell line growth inhibition [AhR]; active = viability on the fitted dose curve at most 10% of control; inactive = the rest;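 further: luminescence taken as a proxy for viable cell amount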
# conditionLabel: second compound 10 µM; first compound 3.16 µM
Outcomes: active, inactive

>>> classification("CC1COCCN1c1cc(C2(S(C)(=N)=O)CC2)nc(-c2ccnc3[nH]ccc23)n1 (stereo not drawn) + Cc1cncc(-c2nc(NCCc3c[nH]c4ccccc34)c3ncn(C(C)C)c3n2)c1")
"active"
>>> classification("CC1COCCN1c1cc(C2(S(C)(=N)=O)CC2)nc(-c2ccnc3[nH]ccc23)n1 (stereo not drawn) + CC(CO)NC(=O)c1cc(-c2ccc(Cl)cc2)nn(-c2cnn(C)c2)c1=O")
"inactive"
>>> classification("COc1cc(Nc2ncc3c(n2)-c2ccc(Cl)cc2C(c2c(F)cccc2OC)=NC3)ccc1C(=O)O + Cc1cncc(-c2nc(NCCc3c[nH]c4ccccc34)c3ncn(C(C)C)c3n2)c1")
"active"

###

# Tested on: LG0703-F498-PDC complex spheroid growth
# assayRemarks: Anticancer human tumor LG0703-F498-PDC cell line growth inhibition [AhR];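 further: luminescence taken as a proxy for viable cell amount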
# conditionLabel: curve of first compound; second compound 0.316 µM
# key: entry, value: IC50
propertyLabel: IC50 (nM)

>>> reportedmeasurement("COc1cccc2c1C(=O)c1c(O)c3c(c(O)c1C2=O)CC(O)(C(=O)CO)CC3OC1CC(N)C(O)C(C)O1 (stereo unspecified) + Cc1ccccc1N=Nc1ccc(NC(=O)c2ccnn2C)c(C)c1")
552
>>> reportedmeasurement("O=C(C=Cn1cnc(-c2cc(C(F)(F)F)cc(C(F)(F)F)c2)n1)NNc1cnccn1 + Cc1ccccc1N=Nc1ccc(NC(=O)c2ccnn2C)c(C)c1")
70.8
>>> reportedmeasurement("NS(=O)(=O)OCC1CC(n2ccc3c(NC4CCc5ccccc54)ncnc32)CC1O (stereo unspecified) + Cc1cncc(-c2nc(NCCc3c[nH]c4ccccc34)c3ncn(C(C)C)c3n2)c1")
2730

###

# Tested on: LG0703-F498-PDC complex spheroid growth
# assayRemarks: Anticancer human tumor LG0703-F498-PDC cell line growth inhibition [AhR];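 further: luminescence taken as a proxy for viable cell amount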
# conditionLabel: second compound 10 µM; first compound 0.01 µM; stronger effect = lower value
propertyLabel: viability, T/C (%)

>>> reportedmeasurement("Cn1ncnc1C1c2n[nH]c(=O)c3cc(F)cc(c23)NC1c1ccc(F)cc1 (stereo unspecified) + CC(CO)NC(=O)c1cc(-c2ccc(Cl)cc2)nn(-c2cnn(C)c2)c1=O")
73.6
>>> reportedmeasurement("CC1COCCN1c1cc(-c2ccnn2C)c2ccnc(-c3ccn[nH]3)c2n1 (stereo unspecified) + Cc1cncc(-c2nc(NCCc3c[nH]c4ccccc34)c3ncn(C(C)C)c3n2)c1")
1.21
>>> reportedmeasurement("Nc1ncn(C2CC(O)C(CO)O2)c(=O)n1 (stereo unspecified) + Cc1ccccc1N=Nc1ccc(NC(=O)c2ccnn2C)c(C)c1")
90.9
>>> reportedmeasurement("Cn1ncnc1C1c2n[nH]c(=O)c3cc(F)cc(c23)NC1c1ccc(F)cc1 (stereo unspecified) + Cc1ccccc1N=Nc1ccc(NC(=O)c2ccnn2C)c(C)c1")
85.9
>>> reportedmeasurement("CC1COCCN1c1cc(-c2ccnn2C)c2ccnc(-c3ccn[nH]3)c2n1 (stereo unspecified) + CC(CO)NC(=O)c1cc(-c2ccc(Cl)cc2)nn(-c2cnn(C)c2)c1=O")
90.1
>>> reportedmeasurement("CC[C@@]1(O)C(=O)OCc2c1cc1n(c2=O)Cc2cc3c(CN(C)C)c(O)ccc3nc2-1 + CC(CO)NC(=O)c1cc(-c2ccc(Cl)cc2)nn(-c2cnn(C)c2)c1=O")
66.5

###

# Tested on: LG0703-F498-PDC complex spheroid growth
# assayRemarks: Anticancer human tumor LG0703-F498-PDC cell line growth inhibition [AhR];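 further: luminescence taken as a proxy for viable cell amount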;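 on viability, T/C: percent of DMSO vehicle control where 100% means growth equal to vehicle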
# conditionLabel: second compound 0.316 µM; first compound 0.0949 µM; stronger effect = lower value
propertyLabel: viability, T/C

>>> reportedmeasurement("O=C(C=Cn1cnc(-c2cc(C(F)(F)F)cc(C(F)(F)F)c2)n1)NNc1cnccn1 + Cc1ccccc1N=Nc1ccc(NC(=O)c2ccnn2C)c(C)c1")
"45.5%"
>>> reportedmeasurement("Nc1ncn(C2CC(O)C(CO)S2)c(=O)n1 (stereo not drawn) + Cc1ccccc1N=Nc1ccc(NC(=O)c2ccnn2C)c(C)c1")
"101%"
>>> reportedmeasurement("CCN(c1cc(-c2ccc(CN3CCOCC3)cc2)cc(C(=O)NCc2c(C)cc(C)[nH]c2=O)c1C)C1CCOCC1 + Cc1cncc(-c2nc(NCCc3c[nH]c4ccccc34)c3ncn(C(C)C)c3n2)c1")
"120%"

###

# Tested on: LG0703-F498-PDC complex spheroid growth
# assayRemarks: Anticancer human tumor LG0703-F498-PDC cell line growth inhibition [AhR];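 further: luminescence taken as a proxy for viable cell amount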;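 on viability, T/C: percent of DMSO vehicle control where 100% means growth equal to vehicle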
# conditionLabel: second compound 10 µM; first compound 0.316 µM; stronger effect = lower value
# key: entry, value: viability, T/C
propertyLabel: viability, T/C (%)

>>> reportedmeasurement("O=C(C=Cc1cccc(S(=O)(=O)Nc2ccccc2)c1)NO + Cc1ccccc1N=Nc1ccc(NC(=O)c2ccnn2C)c(C)c1")
74.7
>>> reportedmeasurement("CC1COCCN1c1cc(-c2ccnn2C)c2ccnc(-c3ccn[nH]3)c2n1 (stereo not drawn) + Cc1cncc(-c2nc(NCCc3c[nH]c4ccccc34)c3ncn(C(C)C)c3n2)c1")
0.8
>>> reportedmeasurement("O=C(c1cc(Cc2n[nH]c(=O)c3ccccc23)ccc1F)N1CCN(C(=O)C2CC2)CC1 + Cc1ccccc1N=Nc1ccc(NC(=O)c2ccnn2C)c(C)c1")
94.5

###

# Tested on: LG0703-F498-PDC complex spheroid growth
# assayRemarks: Anticancer human tumor LG0703-F498-PDC cell line growth inhibition [AhR];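 further: luminescence taken as a proxy for viable cell amount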;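 on viability, T/C: percent of DMSO vehicle control where 100% means growth equal to vehicle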
# conditionLabel: second compound 10 µM; first compound 3.16 µM; stronger effect = lower value
# key: entry, value: viability, T/C
propertyLabel: viability, T/C (%)

>>> reportedmeasurement("NS(=O)(=O)OCC1CC(n2ccc3c(NC4CCc5ccccc54)ncnc32)CC1O (stereo not drawn) + CC(CO)NC(=O)c1cc(-c2ccc(Cl)cc2)nn(-c2cnn(C)c2)c1=O")
34.1
>>> reportedmeasurement("NS(=O)(=O)OCC1CC(n2ccc3c(NC4CCc5ccccc54)ncnc32)CC1O (stereo not drawn) + Cc1ccccc1N=Nc1ccc(NC(=O)c2ccnn2C)c(C)c1")
41.4
>>> reportedmeasurement("O=C(c1cc(Cc2n[nH]c(=O)c3ccccc23)ccc1F)N1CCN(C(=O)C2CC2)CC1 + CC(CO)NC(=O)c1cc(-c2ccc(Cl)cc2)nn(-c2cnn(C)c2)c1=O")
81.8

###

# Tested on: LG0703-F498-PDC complex spheroid growth
# assayRemarks: Anticancer human tumor LG0703-F498-PDC cell line growth inhibition [AhR];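 further: luminescence taken as a proxy for viable cell amount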;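 on viability, T/C: percent of DMSO vehicle control where 100% means growth equal to vehicle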
# conditionLabel: second compound 0.1 µM; first compound 0.949 µM; stronger effect = lower value
# key: entry, value: viability, T/C
propertyLabel: viability, T/C (%)

>>> reportedmeasurement("O=C(C=Cn1cnc(-c2cc(C(F)(F)F)cc(C(F)(F)F)c2)n1)NNc1cnccn1 + CC(CO)NC(=O)c1cc(-c2ccc(Cl)cc2)nn(-c2cnn(C)c2)c1=O")
37.8
>>> reportedmeasurement("CCN(c1cc(-c2ccc(CN3CCOCC3)cc2)cc(C(=O)NCc2c(C)cc(C)[nH]c2=O)c1C)C1CCOCC1 + Cc1ccccc1N=Nc1ccc(NC(=O)c2ccnn2C)c(C)c1")
112
>>> reportedmeasurement("O=C(C=Cn1cnc(-c2cc(C(F)(F)F)cc(C(F)(F)F)c2)n1)NNc1cnccn1 + Cc1ccccc1N=Nc1ccc(NC(=O)c2ccnn2C)c(C)c1")
43.8
>>> reportedmeasurement("CCN(c1cc(-c2ccc(CN3CCOCC3)cc2)cc(C(=O)NCc2c(C)cc(C)[nH]c2=O)c1C)C1CCOCC1 + Cc1cncc(-c2nc(NCCc3c[nH]c4ccccc34)c3ncn(C(C)C)c3n2)c1")
121
>>> reportedmeasurement("O=C(C=Cn1cnc(-c2cc(C(F)(F)F)cc(C(F)(F)F)c2)n1)NNc1cnccn1 + Cc1cncc(-c2nc(NCCc3c[nH]c4ccccc34)c3ncn(C(C)C)c3n2)c1")
37.4
>>> reportedmeasurement("CCN(c1cc(-c2ccc(CN3CCOCC3)cc2)cc(C(=O)NCc2c(C)cc(C)[nH]c2=O)c1C)C1CCOCC1 + CC(CO)NC(=O)c1cc(-c2ccc(Cl)cc2)nn(-c2cnn(C)c2)c1=O")
95.7
